# assayed-target: Geranylgeranyl transferase type I (Candida albicans)
# method-description: Inhibition of Candida geranylgeranyl transferase I
reported-endpoint: pIC50
Recall that pIC50 is obtained by taking minus log10 of the concentration measured in molar.

Prompt: Using the record for O=C(OC(CS)C(O)CS)c1csc(C2COc3ccccc3O2)n1 (stereo unspecified) , state its measured pIC50.
Response: 7.77

----------
# assayed-target: Geranylgeranyl transferase type I (Candida albicans)
# method-description: Inhibition of Candida geranylgeranyl transferase I […]
reported-endpoint: IC50 (µM)
Number in µM, nothing else.

Example results:
{"columns": ["compound", "assayed-target", "IC50, µM"],
 "data": [
  ["O=C(OC(CS)C(O)CS)c1csc(C2COc3ccccc3O2)n1 (stereo not drawn)", "Geranylgeranyl transferase type I (Candida albicans)", 0.017],
  ["O=C(OCCCS)c1csc(C2COc3ccccc3O2)n1 (stereo not drawn)", "Geranylgeranyl transferase type I (Candida albicans)", 0.24]
]}

Next compound, IC50 to be filled in.
Prompt: Using the record for O=C(OCCS)c1csc(C2COc3ccccc3O2)n1 (stereo not drawn) , state its measured IC50.
Response: 1.3

----------
# assayed-target: Geranylgeranyl transferase type I (Candida albicans)
# method-description: Tested for the inhibition of Candida GGTase I in Candida albicans
reported-endpoint: pIC50
Recall that pIC50 is obtained by taking minus log10 of the concentration measured in molar.

Example results:
{"columns": ["compound", "pIC50"],
 "data": [
  ["O=C(OCC(O)CS)c1csc(C2COc3ccccc3O2)n1 (stereo not given)", 7.51],
  ["O=C(NCCCS)c1csc(C2COc3ccccc3O2)n1 (stereo not given)", 6.11],
  ["O=C(N[C@H](Cc1cccc2ccccc12)C(=O)NCCc1cnc[nH]1)C1Cc2ccccc2C1", 6.46],
  ["O=C(N[C@H](Cc1cccc2ccccc12)C(=O)OCCCS)C1Cc2ccccc2C1", 8.14]
]}

Prompt: Using the record for O=C(N[C@H](Cc1ccc(Cl)c(Cl)c1)C(=O)NCCc1c[nH]cn1)C1c2ccccc2Oc2ccccc21 , state its measured pIC50.
Response: 8.00

----------
# assayed-target: Protein farnesyltransferase (Homo sapiens, UniProt P49354+P49356)
# method-description: Inhibition of human farnesyl transferase
# Type: protein-complex assay
reported-endpoint: IC50

Prompt: Using the record for O=C(OC(CS)C(O)CS)c1csc(C2COc3ccccc3O2)n1 (stereo unspecified) , state its measured IC50.
Response: > 1000 µM

----------
# System: Geranylgeranyl transferase type I (Candida albicans)
# method-description: Tested for the inhibition of Candida GGTase I in Candida albicans at concentration of 3 uM
Recorded inhibition values for a group of molecules are listed next.
Number in %, nothing else.

{"columns": ["molecule", "assayed-target", "inhibition (%)"],
 "data": [
  ["O=C(NC(Cc1ccccc1)C(=O)OCCCS)C1Cc2ccccc2C1 (stereo not drawn)", "Geranylgeranyl transferase type I (Candida albicans)", 63]
]}

Next molecule, inhibition to be filled in.
Prompt: Using the record for O=C(NC(C(=O)OCCCS)c1cccc2ccccc12)C1COc2ccccc2O1 (stereo not drawn) , state its measured inhibition.
Response: 89

----------
# System: Geranylgeranyl transferase type I (Candida albicans)
# method-description: Tested for the inhibition of Candida GGTase I in Candida albicans at concentration of 3 uM
reported-endpoint: inhibition (%)
Number in %, nothing else.

Prompt: Using the record for O=C(OCCCS)C(Cc1c[nH]c2ccccc12)NC(=O)C1COc2ccccc2O1 (stereo unspecified) , state its measured inhibition.
Response: 72

Prompt: Using the record for O=C(NC(Cc1ccc2ccccc2c1)C(=O)OCCCS)C1Cc2ccccc2C1 (stereo unspecified) , state its measured inhibition.
Response: 36

Prompt: Using the record for O=C(OCCCS)C(Cc1ccc2ccccc2c1)NC(=O)C1COc2ccccc2O1 (stereo unspecified) , state its measured inhibition.
Response: 25

----------
# Test system: Geranylgeranyl transferase type I (Candida albicans)
# method-description: Tested for the inhibition of Candida GGTase I in Candida albicans at concentration of 3 uM
reported-endpoint: inhibition

Example results:
{"columns": ["compound", "endpoint-result"],
 "data": [
  ["O=C(CNC(=O)C1COc2ccccc2O1)OCCCS (stereo not drawn)", "< 10%"],
  ["O=C(O)CCC(NC(=O)C1Cc2ccccc2C1)C(=O)OCCCS (stereo not drawn)", "< 10%"],
  ["O=C(CNC(=O)C1Cc2ccccc2C1)OCCCS", "< 10%"],
  ["O=C(O)CCC(NC(=O)C1COc2ccccc2O1)C(=O)OCCCS (stereo not drawn)", "< 10%"],
  ["O=C(NC(C(=O)OCCCS)c1cccc2ccccc12)C1Cc2ccccc2C1 (stereo not drawn)", "90%"]
]}

Prompt: Using the record for O=C(NC(Cc1c[nH]c2ccccc12)C(=O)OCCCS)C1Cc2ccccc2C1 (stereo not drawn) , state its measured inhibition.
Response: 72%

Prompt: Using the record for O=C(OCCCS)C(Cc1ccccc1)NC(=O)C1COc2ccccc2O1 (stereo not drawn) , state its measured inhibition.
Response: 55%

Prompt: Using the record for NC(=O)[C@@H](Cc1c[nH]cn1)NC(=O)[C@@H](Cc1cccc2ccccc12)NC(=O)C1Cc2ccccc2C1 , state its measured inhibition.
Response: 48%

Prompt: Using the record for CC(O)C(NC(=O)C1Cc2ccccc2C1)C(=O)OCCCS (stereo not drawn) , state its measured inhibition.
Response: < 10%

Prompt: Using the record for CC(O)C(NC(=O)C1COc2ccccc2O1)C(=O)OCCCS (stereo not drawn) , state its measured inhibition.
Response: < 10%

Prompt: Using the record for NC(=O)[C@@H](Cc1c[nH]cn1)NC(=O)[C@@H](Cc1cccc2ccccc12)NC(=O)C1c2ccccc2Oc2ccccc21 , state its measured inhibition.
Response: 97%

Prompt: Using the record for O=C(NC(CC1CCCCC1)C(=O)OCCCS)C1Cc2ccccc2C1 (stereo not drawn) , state its measured inhibition.
Response: < 10%

Prompt: Using the record for O=C(OCCCS)C(CC1CCCCC1)NC(=O)C1COc2ccccc2O1 (stereo not drawn) , state its measured inhibition.
Response: < 10%
